# STUDY_SYSTEM: Human eIF4E (aa 28-217) / biotin labeled 4G2 peptide (Homo sapiens (Human), UniProt P06730)
# Sequence (P06730 28-217): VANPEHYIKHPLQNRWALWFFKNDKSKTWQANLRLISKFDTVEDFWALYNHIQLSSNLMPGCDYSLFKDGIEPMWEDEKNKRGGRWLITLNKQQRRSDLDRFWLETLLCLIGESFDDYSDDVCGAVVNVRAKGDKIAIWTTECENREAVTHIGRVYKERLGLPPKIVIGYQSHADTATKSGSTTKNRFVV
# RUN_DESCRIPTION: Human eIF4E/4G2 binding assay (TR-FRET)
# EXPERIMENTAL_CONDITIONS: Human eIF4E/4G2 TR-FRET binding assay; head says IC50, legend says EC50
ENDPOINT_LABEL: IC50

Previously resolved entries follow.
COMPOUND | ENDPOINT_LABEL | MEASURED_VALUE
CC(C)Cc1sc(-c2ccc(Br)c(C(=O)O)c2)nc1-c1ccc(Cl)c(Cl)c1 | IC50 | 1000 to 10000 nM
CC(C)Cc1sc(N(CCC(=O)N2CCC(CN)CC2)Cc2ccccc2)nc1-c1ccc(Cl)c(Cl)c1 | IC50 | 1000 to 10000 nM
CC(C)Cc1sc(Nc2cc(C(=O)O)cc(C(F)(F)F)c2)nc1-c1ccc(Cl)c(Cl)c1 | IC50 | ≤ 1000 nM
COc1ccc(CC(CNc2nc(-c3ccc(Cl)c(Cl)c3)c(CC(C)C)s2)C(=O)O)cn1 (stereo not drawn) | IC50 | 1000 to 10000 nM
CC(C)Cc1sc(N(CCC(=O)O)CCc2ccccc2)nc1-c1ccc(Cl)c(Cl)c1 | IC50 | ≤ 1000 nM

// returns reported IC50 for input CC(C)Cc1sc(N2CCN(C(=O)c3cccs3)C(C(=O)O)C2)nc1-c1ccc(Cl)c(Cl)c1 (stereo not drawn)
≤ 1000 nM

// returns reported IC50 for input `CC(C)c1sc(Nc2ncc(-c3ccccn3)cc2C(=O)O)nc1-c1ccc(Cl)c(Cl)c1`
≤ 1000 nM

// returns reported IC50 for input `CC(C)Cc1sc(N(CCC(=O)O)Cc2cccs2)nc1-c1ccc(Cl)c(Cl)c1`
≤ 1000 nM

// returns reported IC50 for input `COCCN(CCC(=O)O)c1nc(-c2ccc(Cl)c(Cl)c2)c(CC(C)C)s1`
1000 to 10000 nM

// returns reported IC50 for input O=C(O)C(CCc1ccccc1)CNc1nc(-c2ccc(Cl)c(Cl)c2)c(C2CC2)s1 (stereo not drawn)
1000 to 10000 nM

// returns reported IC50 for input `CC(C)Cc1sc(Nc2ccc(-c3ccccc3)c(C(=O)O)c2)nc1-c1ccc(Cl)c(Cl)c1`
≤ 1000 nM

// returns reported IC50 for input COc1cccc(-c2nc(NCC(Cc3c[nH]c4ccccc34)C(=O)O)sc2C(C)C)c1 (stereo not drawn)
1000 to 10000 nM

// returns reported IC50 for input `CC(C)Cc1sc(-c2ccc(C(=O)O)s2)nc1-c1ccc(Cl)c(Cl)c1`
≤ 1000 nM

// returns reported IC50 for input O=C(O)C(CNc1nc(-c2ccc(Cl)c(Cl)c2)c(C2CC2)s1)Cc1cccc2[nH]ccc12 (stereo not drawn)
1000 to 10000 nM

// returns reported IC50 for input `CC(C)Cc1sc(N(Cc2ccccc2)C(=O)CC(=O)O)nc1-c1ccc(Cl)c(Cl)c1`
> 10000 nM

// returns reported IC50 for input `COc1ccnc(Nc2nc(-c3ccc(Cl)c(Cl)c3)c(CC(C)C)s2)c1C(=O)O`
≤ 1000 nM

// returns reported IC50 for input `CC(C)Cc1sc(Nc2ccc(N3CCOCC3)c(C(=O)O)c2)nc1-c1ccc(Cl)c(Cl)c1`
> 10000 nM

// returns reported IC50 for input `C=Cc1sc(N(CCC(=O)O)Cc2ccccc2)nc1-c1ccc(Cl)c(Cl)c1`
1000 to 10000 nM
